Entries and their measured Ki follow.
molecular target: UniProt:P25021; test: GPCRScan assay: inhibition of H2; design: radioligand conc. used [nm] 0.02 – 0.05, parental cells Stable HEK; conditions: read-out: Ki
Sequence (P25021 whole entry): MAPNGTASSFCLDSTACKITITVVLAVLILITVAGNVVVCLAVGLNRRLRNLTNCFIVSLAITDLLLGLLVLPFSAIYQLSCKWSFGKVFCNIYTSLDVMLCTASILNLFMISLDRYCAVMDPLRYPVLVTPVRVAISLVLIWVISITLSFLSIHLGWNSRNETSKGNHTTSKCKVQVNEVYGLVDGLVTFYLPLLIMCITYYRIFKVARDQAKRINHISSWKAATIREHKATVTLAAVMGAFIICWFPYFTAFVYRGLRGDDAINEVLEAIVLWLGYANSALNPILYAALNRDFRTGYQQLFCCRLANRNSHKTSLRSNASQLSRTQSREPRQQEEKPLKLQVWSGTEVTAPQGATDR
reported metric: Ki (nM)

In [3]: df
Out[3]:
                                 smiles_str  experimental_value
0  CNCc1ccccc1-c1csc([C@@H](C)Nc2nc(C)nc3cc(OC)c(OC)cc23)c1                 140
1  CNCc1ccccc1-c1csc([C@H](C)Nc2nc(C)nc3cc(OC)c(OC)cc23)c1                21.1

Values were extracted from ChEMBL document CHEMBL4507273.
